B1: scFv; the commonest letter at each place (parent)
chain 1: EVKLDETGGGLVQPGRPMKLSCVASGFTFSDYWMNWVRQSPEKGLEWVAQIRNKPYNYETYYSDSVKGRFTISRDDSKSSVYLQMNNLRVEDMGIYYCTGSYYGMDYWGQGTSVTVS
chain 2: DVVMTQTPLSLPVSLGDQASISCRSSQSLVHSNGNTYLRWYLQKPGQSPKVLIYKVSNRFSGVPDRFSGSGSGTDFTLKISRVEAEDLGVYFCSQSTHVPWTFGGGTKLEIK

# Variants of: B1
# Test Protocol: yeast surface expression (ratio to wild type); higher = more expressed
# Condition: format: scFv 4-4-20, heavy + light
Binned yeast surface expression; ranges: L: < 0.5; M: ≥ 0.5 and < 0.9; H: ≥ 0.9

Please review the entries below; each comes with its answer.
| Mutant Id | Qualitative Label |
| --- | --- |
| chain 1 W33S W36I | M |
| chain 1 G104R Y107R | L |
| chain 1 G104L W108C | L |
| chain 1 S30N W36N | L |
| chain 1 Y107I | H |

Ask | Which of the defined bands does the recorded yeast surface expression of chain 1 G100R W108Y sit within?
Reply | L

Ask | Please report the category associated with chain 1 Y102S Y103C , nothing else.
Reply | M

Ask | Using the reported yeast surface expression, which band applies to chain 1 T28L D31L ?
Reply | L
